Experiment: NCI Yeast Anticancer Drug Screen. Data for the bub3 strain (AID 167)
Conditions: S. cerevisiae bub3 mutant strain, at 50.0 µM
Compounds without any hit were thinned out: in the full panel of roughly 79,000, 15% have a hit. Active and inactive are the calls of the source. Rule as the data show it: active = growth inhibition above about 70%; inactive = the rest.
Outcomes: active, inactive

compound=O=[N+]([O-])c1cc([As](=O)(O)O)ccc1S(=O)(=O)O class_assignment=inactive
compound=CCCCOCN(CCc1ccccc1)COCCCC class_assignment=inactive
compound="O=C(O)CC(=O)O.[NH-]C1CCCCC1[NH-].[Pt+2] (stereo unspecified)" class_assignment=inactive
compound="CP1(=S)CCC2=C1CCc1cc(O)ccc12 (stereo unspecified)" class_assignment=inactive
compound="CCC1(O)N=C(c2ccccc2)c2ccccc2-n2cccc21 (stereo unspecified)" class_assignment=inactive
compound="CCOP(=O)(OCC)C(O)C(C)C (stereo unspecified)" class_assignment=inactive
compound="CCC1(CC)C(=O)NC(=NCCCC(N)C(=O)O)NC1=O (stereo unspecified)" class_assignment=inactive
compound=C=CCCCCCCCCC(=O)Nc1ccc(Cl)cc1C(=O)c1ccccc1 class_assignment=inactive
compound="COc1cc(C2c3cc4c(cc3[C@@H](OC)[C@H]3COC(=O)C23)OCO4)cc(OC)c1O (stereo partly specified)" class_assignment=active
compound="CCOC12CC3C4=CCOC5CC(=O)N6c7ccccc7C1(CCN2C4)C6C53 (stereo unspecified)" class_assignment=inactive
compound=C=C[CH2][Sn]([CH2]C=C)([CH2]CCC)[CH2]CCC class_assignment=active
compound="COc1c2c(cc3c1OCO3)[C@]13C=C[C@H](OC)C[C@H]1N(C2)CC3O (stereo partly specified)" class_assignment=inactive
compound="CC(=O)OC1CCC2(CO)C(CCC3C4CCC(=O)C4(C)CCC32)C1 (stereo unspecified)" class_assignment=inactive
compound="CSCCC(N)C(=O)O.[Pb] (stereo unspecified)" class_assignment=inactive
compound="CC(=O)C1CCC2C3CCC4CC(O)CCC4(C)C3CCC12C (stereo unspecified)" class_assignment=inactive
compound=CC(=O)C(I)C(C)=O.[Cr] class_assignment=inactive
compound=CN(C)Cc1c[nH]c2ccc(F)cc12 class_assignment=inactive
compound=C=C[C](=C)[Pb]([CH2]C)([CH2]C)[CH2]C class_assignment=inactive
compound=CCN(CC)CCn1ccc2ccccc21 class_assignment=inactive
compound="CC(Br)C(N)=O (stereo unspecified)" class_assignment=inactive
compound=O=P(O)(NCCCl)NCCCl class_assignment=inactive
compound=CCCCCCCCCSCP(=O)(OCC)OCC class_assignment=active
compound=CCC[CH2][Sn]([Cl])([Cl])[CH2]CCC.c1ccncc1 class_assignment=active
compound="O=C1OC(C(O)CO)C(O)=C1OC[N+]1(CCCl)CCN(CCCl)CC1 (stereo unspecified)" class_assignment=inactive
compound=N#CC(C#N)=Cc1ccc(C=C(C#N)C#N)cc1 class_assignment=inactive
compound="CCC(=O)OC1(c2ccccc2)CCN(CCC(O)c2ccccc2)CC1C (stereo unspecified)" class_assignment=inactive
